All figures here come from the supplement of paper PMC10567573.

B1: MFF (parent)
chain: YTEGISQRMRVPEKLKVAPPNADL

variants of: B1; assay: protein stability index of a GFP-peptide fusion (GPS, HEK-293T) (PSI 1-6); higher = more stable; details: c terminus: a fixed tail appended;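 note: lentivirally expressed fusions sorted by FACS into six bins by GFP to DsRed ratio, PSI derived from sequencing read proportions per bin multiplied by bin number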
QUANTITY_KIND: protein stability index

Use these answered entries as a reference point.
* A22T | 2.91
* R10M | 2.48
* R10W | 3.33

With those in mind, consider the next variant.
Q: Would you mind telling me what protein stability index value was observed for P20W ?
Result: 2.35
